Test system: NCI-H226 lung
Experiment: NCI tumour cell line growth inhibition, 48 h
metric name: TGI

Some solved cases for reference:
>  <compound>
O=C1/C(=C/c2ccccc2)CCCC1CN1CCCCC1 (stereo unspecified)

>  <TGI>
9.87 µM

$$$$
>  <compound>
COc1c(C=O)c2c(c(OC)c1OC)-c1ccc(OC)c(=O)cc1[C@@H](NC(C)=O)CC2

>  <TGI>
4.17 µM

$$$$
>  <compound>
O=c1cc(NCCCCCO)[nH]c(=O)[nH]1

>  <TGI>
> 100 µM

$$$$
>  <compound>
CCOC(=O)CN1C(=O)c2c(c(C)n(-c3ccccc3)c2C)C1=O

>  <TGI>
> 100 µM

$$$$
>  <compound>
CN1C(=O)CC(c2cccc(C3CC(=O)N(C)C3=O)n2)C1=O (stereo unspecified)

>  <TGI>
> 100 µM

$$$$

Q. Tell us which TGI value is on record for COC1=C2CC(C)CC(OC)C(O)C(C)/C=C(\C)C(OC(N)=O)C(OC)/C=C\C=C(/C)C(=O)NC(=C(C=NC(C)(C)C)C1=O)C2=O (stereo unspecified)
A. 13.8 µM

Q. Tell us which TGI value is on record for CC1(C)CC23C4COC(=O)C2CCC1C3CC4=O (stereo unspecified)
A. 20.6 µM

Q. Tell us which TGI value is on record for CC(NS(=O)(=O)c1ccc([N+](=O)[O-])cc1)C(=O)O (stereo unspecified)
A. > 100 µM

Q. Tell us which TGI value is on record for Clc1ccc(CSC(Cn2ccnc2)c2ccc(Cl)cc2Cl)cc1 (stereo unspecified)
A. 2.84 µM

Q. Tell us which TGI value is on record for `C=CCn1c(=O)c2ccccc2[n+]2c(C)c(C(=O)OCC)sc12`
A. > 100 µM

Q. Tell us which TGI value is on record for COC(=O)C1=C(c2ccc(OC)c(OC)c2)OC(c2ccc(OC)c(OC)c2)C1 (stereo unspecified)
A. > 100 µM

Q. Tell us which TGI value is on record for NC(Cc1ccc(S(=O)(=O)O)cc1)C(=O)NC(CCCCNC(=O)NCCCCC(NC(=O)C(N)Cc1ccc(S(=O)(=O)O)cc1)C(=O)NC(Cc1ccc(S(=O)(=O)O)cc1)C(=O)O)C(=O)NC(Cc1ccc(S(=O)(=O)O)cc1)C(=O)O (stereo unspecified)
A. > 100 µM

Q. Tell us which TGI value is on record for `Cc1c(NC(=S)NN)c(=O)n(-c2ccccc2)n1C`
A. > 100 µM

Q. Tell us which TGI value is on record for CCNC(C)Cc1ccccc1 (stereo unspecified)
A. > 100 µM

Q. Tell us which TGI value is on record for `Cc1c2cc[n+](C)cc2c(C)c2c1sc1ccccc12`
A. 2.11 µM

Q. Tell us which TGI value is on record for `Cc1ccc(S(=O)(=O)c2c(N)c3nc4ccccc4n3c3nc4ccccc4nc23)cc1`
A. > 100 µM

Q. Tell us which TGI value is on record for `COc1ccc2oc(=O)cc(C(c3ccc[nH]3)c3ccc[nH]3)c2c1`
A. 24.4 µM

----------
Measured TGI accompanies every entry in the list below.
Test system: SW-620 colon
Experiment: NCI tumour cell line growth inhibition, 48 h
Where a SMILES comes first, the peptide text is derived from it. The star is where a group is joined. Boc = CC(C)(C)OC(=O)*; Bz = O=C(c1ccccc1)*

>  <compound>
COc1cc(C=O)ccc1Oc1nnnn1-c1ccccc1

>  <TGI>
> 100 µM

$$$$
>  <compound>
Cc1ccc(NC(=O)c2cc3cc(N=Nc4ccc(Br)cc4)ccc3oc2=O)cc1

>  <TGI>
> 100 µM

$$$$
>  <compound>
C=C(CN(C)C)C(=O)c1ccccc1C

>  <TGI>
33.1 µM

$$$$
>  <compound>
Cc1cn(Cc2ccccc2CCO)c(=S)[nH]c1=O

>  <TGI>
> 100 µM

$$$$
>  <compound>
CN(Cc1cnc2nc(N)nc(N)c2n1)c1ccc(C(=O)NC(CCC(=O)O)C(=O)O)cc1C(F)(F)F (centres undefined)

>  <TGI>
> 100 µM

$$$$

Q. Tell us which TGI value is on record for `Cc1cc(N(CCC#N)CCC#N)ccc1/C=C1N=C(/C=C\c2ccccc2)OC\1=O`
A. > 100 µM

Q. Tell us which TGI value is on record for `CCOC(=O)c1c2c(c(O)c3ccccc3c(O)n(Cc3ccc(OC)cc3)c1C)C(=O)C=CC2=O`
A. > 100 µM

Q. Tell us which TGI value is on record for `Cc1c(C#N)c2nnn(-c3ccc(Cl)cc3)c(=O)n2c1-c1ccccc1`
A. 31.4 µM

Q. Tell us which TGI value is on record for CC(NC(=O)C(Cc1ccc(OC(=O)c2ccccc2)cc1)NC(=O)OC(C)(C)C)C(=O)NC(Cc1ccccc1)C(=O)NCC(N)=O (centres undefined) (Boc-Y(Bz)AFG-NH2; configuration not given here)
A. > 100 µM
